# experiment-description: Pharmacokinetics after single po and iv administration
# reported-conditions: mouse, plasma, iv, 20 mg/kg
measurement-name: AUC(0-inf) (ng·h/mL)
Hi! Could you send only the number? It should be in ng·h/mL, unit omitted.

Quick note, AUC(0-inf) for Oc1ccc(-c2nc(-c3ccc(OC4CCCC4)cc3)no2)cc1 landed at 19200

----------
# System: C. difficile BAA-1801
# experiment-description: MIC, broth microdilution
# Assay type: cell-based
# reported-conditions: Clostridioides difficile, BAA1801; C. difficile BAA-1801 (nontoxigenic); 48 h; read-out: MIC at 48 h
measurement-name: MIC
Note: state the figure and append the unit.

Worked cases, MIC given:
Oc1ccc(-c2nc(-c3ccc(OC4CCCC4)cc3)no2)cc1 2 µg/mL
Cc1ncc([N+](=O)[O-])n1CCO 0.125 µg/mL
CCc1c(Cl)c(O)c(Cl)c(O)c1C(=O)O[C@H]1[C@H](O)[C@H](OC)[C@H](OC/C2=C\C=C\C[C@H](O)/C(C)=C/[C@H](CC)[C@@H](O[C@@H]3OC(C)(C)[C@@H](OC(=O)C(C)C)[C@H](O)[C@@H]3O)/C(C)=C/C(C)=C/C[C@@H]([C@@H](C)O)OC2=O)O[C@@H]1C 0.125 µg/mL

Please examine the following record next.
Quick note, MIC for FC(F)(F)c1ccc(Oc2ccc(-c3noc(-c4ccc5[nH]ccc5c4)n3)cc2)cc1 landed at 4 µg/mL

----------
# Tested on: Bacteroides caccae
# experiment-description: MIC against common gut bacteria
# Assay type: cell-based
# reported-conditions: read-out: MIC
measurement-name: MIC (µg/mL)
Hi! Could you send only the number? It should be in µg/mL, unit omitted.

Oc1ccc(-c2nc(-c3ccc(OC4CCCC4)cc3)no2)cc1 2
FC(F)(F)c1ccc(Oc2ccc(-c3noc(-c4ccc5[nH]ccc5c4)n3)cc2)cc1 4

Please examine the following record next.
Quick note, MIC for Cc1ncc([N+](=O)[O-])n1CCO landed at 2

----------
# experiment-description: Pharmacokinetics after single po and iv administration
# reported-conditions: mouse, plasma, iv, 20 mg/kg
measurement-name: half-life (min)
Hi! Could you send only the number? It should be in min, unit omitted.

Quick note, half-life for Oc1ccc(-c2nc(-c3ccc(OC4CCCC4)cc3)no2)cc1 landed at 72

----------
Known MIC of a selection of molecules
# System: Lactobacillus gasseri HM-644
# experiment-description: MIC against common gut bacteria
# Type: cell-based
# reported-conditions: HM644; Lactobacillus gasseri HM-644; read-out: MIC

Worked cases, MIC given:
Oc1ccc(-c2nc(-c3ccc(OC4CCCC4)cc3)no2)cc1 > 128 µg/mL
Cc1ncc([N+](=O)[O-])n1CCO > 32 µg/mL
FC(F)(F)c1ccc(Oc2ccc(-c3noc(-c4ccc5[nH]ccc5c4)n3)cc2)cc1 > 12 µg/mL

Quick note, MIC for CCc1c(Cl)c(O)c(Cl)c(O)c1C(=O)O[C@H]1[C@H](O)[C@H](OC)[C@H](OC/C2=C\C=C\C[C@H](O)/C(C)=C/[C@H](CC)[C@@H](O[C@@H]3OC(C)(C)[C@@H](OC(=O)C(C)C)[C@H](O)[C@@H]3O)/C(C)=C/C(C)=C/C[C@@H]([C@@H](C)O)OC2=O)O[C@@H]1C landed at 2 µg/mL

----------
# experiment-description: Pharmacokinetics after single po and iv administration
# reported-conditions: mouse, plasma, iv, 20 mg/kg
measurement-name: Vd (L/kg)
Hi! Could you send only the number? It should be in L/kg, unit omitted.

Quick note, Vd for Oc1ccc(-c2nc(-c3ccc(OC4CCCC4)cc3)no2)cc1 landed at 1.8

----------
# System: C. difficile BAA-1801
# experiment-description: MIC, broth microdilution
# Type: cell-based
# reported-conditions: Clostridioides difficile, BAA1801; C. difficile BAA-1801 (nontoxigenic); 24 h; read-out: MIC at 24 h
measurement-name: MIC (µg/mL)
Hi! Could you send only the number? It should be in µg/mL, unit omitted.

FC(F)(F)c1ccc(Oc2ccc(-c3noc(-c4ccc5[nH]ccc5c4)n3)cc2)cc1 2

Quick note, MIC for CCc1c(Cl)c(O)c(Cl)c(O)c1C(=O)O[C@H]1[C@H](O)[C@H](OC)[C@H](OC/C2=C\C=C\C[C@H](O)/C(C)=C/[C@H](CC)[C@@H](O[C@@H]3OC(C)(C)[C@@H](OC(=O)C(C)C)[C@H](O)[C@@H]3O)/C(C)=C/C(C)=C/C[C@@H]([C@@H](C)O)OC2=O)O[C@@H]1C landed at 0.03

Quick note, MIC for Cc1ncc([N+](=O)[O-])n1CCO landed at 0.125

Quick note, MIC for Oc1ccc(-c2nc(-c3ccc(OC4CCCC4)cc3)no2)cc1 landed at 2

----------
# experiment-description: Pharmacokinetics after single po and iv administration
# reported-conditions: mouse, plasma, po, 20 mg/kg
measurement-name: Cmax (ng/mL)
Hi! Could you send only the number? It should be in ng/mL, unit omitted.

Quick note, Cmax for Oc1ccc(-c2nc(-c3ccc(OC4CCCC4)cc3)no2)cc1 [Compound 2] landed at 300

----------
# experiment-description: Toxicity and fecal concentration after multiple oral doses
# reported-conditions: female, C57B1/6, mouse, feces, oral, 40 mg/kg
measurement-name: concentration at 5 day (µg/mL)
Hi! Could you send only the number? It should be in µg/mL, unit omitted.

Quick note, concentration at 5 day for Oc1ccc(-c2nc(-c3ccc(OC4CCCC4)cc3)no2)cc1 landed at 30.8
